Data credit: patent US7683078B2

Measured target: UniProt:P53779
Sequence (P53779 whole entry, species assumed): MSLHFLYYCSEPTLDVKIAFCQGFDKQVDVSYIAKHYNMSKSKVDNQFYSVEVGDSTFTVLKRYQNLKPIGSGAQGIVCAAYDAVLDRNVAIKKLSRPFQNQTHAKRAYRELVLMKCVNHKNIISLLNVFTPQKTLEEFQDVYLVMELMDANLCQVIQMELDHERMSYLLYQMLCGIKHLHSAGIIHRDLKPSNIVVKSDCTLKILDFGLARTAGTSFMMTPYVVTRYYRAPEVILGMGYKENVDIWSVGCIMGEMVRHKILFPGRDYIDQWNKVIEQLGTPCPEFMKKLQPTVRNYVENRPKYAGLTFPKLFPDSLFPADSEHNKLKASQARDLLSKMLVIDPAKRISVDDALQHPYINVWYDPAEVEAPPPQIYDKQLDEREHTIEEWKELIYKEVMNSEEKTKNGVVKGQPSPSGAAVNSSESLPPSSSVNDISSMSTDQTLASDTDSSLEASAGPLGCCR
Assay text: JNK3 in vitro assay (33P incorporation into c-jun, SPA)
Test conditions: recombinant pre-activated GST-JNK3, biotinylated GST-c-Jun, 2 μM 33γ-ATP, 120 min R.T.; read-out: inhibition (IC50) with regard to JNK3
Experimental: The phosphorylation of c-jun by JNK2 or JNK3 can be followed by monitoring the incorporation of ^33P into c-jun following the protocol below. The inhibitory activity of the compounds according to formula I, towards c-jun phosphorylation through JNK, is determined by calculating phosphorylation activity in the presence or absence of compounds according to formula I. […]
Measure: IC50 (nM)

| Query smiles | IC50, nM |
| --- | --- |
| CN(CCCNCc1ccc(C(F)(F)F)cc1)S(=O)(=O)c1ccc(CNC(=O)c2ccc(Cl)cc2)s1 | 188 |
| CCCCCCNCCCN(C)S(=O)(=O)c1ccc(CNC(=O)c2ccc(Cl)cc2)s1 | 184 |
